From: PubChem BioAssay (NCI)

- Tested on: HT29 colon
- experiment_description: NCI tumour cell line growth inhibition, 48 h
Listing of recorded TGI by entry.
A number alone suffices; assume µM.

Consider the reported TGI for these compounds:
COc1cnc2c(c1)C(=O)c1c-2n(CCCNCCO)c(=O)c2ccncc12 = 16.7
c1ccc2c(-c3nc(-c4c[nH]c5ccncc45)cs3)c[nH]c2c1 = 4.2

# ---- query compound ----
Query: Need TGI of C=C1CCC2(C#N)[C@H]3[C@H](CC[C@@H]2C)[C@@H](C)C[C@@H](CC(C)(C)NC(=O)CN2CCC2=O)[C@H]13 (stereo not given in full) , thanks.
Reply: 24.8
